Provenance of the data: patent US20220185900A1

Property: t½; scope: individual binders
- TGT: T1, hRET.mmh (human, UniProt P07949 29-635, biotinylated in the ELISA of Example 4 (biot-hRET.mmh); not in the SPR of Example 3)
- T1 construct: also called biot-hRET.mmh; soluble monomeric human RET
- ASSAY_NAME: SPR Biacore T200, mAb capture, 25 C
Answer with a number only, understood to be in min.

Here's what some known entries look like.
H4H8087P (antibody, human IgG4, V domains shown, human IgG4 Fc (H4H prefix)) VH: QVQLVESGGGVVQPGRSLRLSCAASGFSFSSYGMHWVRQAPGKGLEWVAVMWYDGSNEYYADSVKGRFIISRDNSKSTLYLEMNSLRAEDTALYYCAREDWDEGYYYGMDVWGQGTTVTVSS VL: DIQMTQSPSSLFASVGDRVTITCRASQDIRYDLGWYQQKPGKAPKRLIYASSILESGVPSRFSGSGSGTEYTLTISTLQSEDFAIYYCLQHNSFPWTFGQGTKVEIK :: 48
H4H8045P (antibody, human IgG4, V domains shown, human IgG4 Fc (H4H prefix)) VH: EVQLVESGGALVQPGGSLRLSCAASGFTFSNYAMTWVRQAPGMGLEWVSGISSSGASTFYADSVKGRFTISRDNSKNTLYLQMNSLRAEDTAVYYCAKEDYWGWFDYWGQGTLVTVSS VL: DIQLTQSPSFLSASVGDRVTITCWASQDVSSYLAWYQQEPGKAPKVLIYDASTLQSGVPSRFSGSGSGTEFTLTISSLQPEDFAPYYCQQLNSYPYTFGQGTKLEIK :: 47

Input: Using known records, supply t½ for H4H8066P (antibody, human IgG4, V domains shown, human IgG4 Fc (H4H prefix)) VH: EVQLVESGGGLVQPGGSLRLSCEASGFTFSRYAMTWVRQAPGKGLEWVSGISGSGGSTFYVDSLQGRFTLSRDNSKHTLFLQMNSLRAEDTAIYYCAKENTYGHFDYWGQGTLVTVSS VL: DIQLTQSPSFLSASVGDRVTITCWASQDISTYLAWYQQKPGKAPQVLIYAASSLQYGVPSRFSGSGSGTEFTLTITSLQPEDFATYYCQQLIGYPYIFGQGTKLEIK
Output: 45
